test system: HOP-92 NSCLC; assay: NCI-60 one-dose screen, 48 h (100 = growth as untreated, 0 = no growth, -100 = all killed); conditions: 10 µM unless noted
This is part of a sample that, as a whole, favours compounds with a hit. Of some 83,000 tested, about 20% had one in any assay. Calls of active or inactive are those of the source. The calls were made as follows: active = growth percent below 10; inactive = the rest.
metric: growth

Ask: // growth lookup, key: CN1CCN(c2ccc3nc(-c4cc(C(C)(C)C)c(O)c(C(C)(C)C)c4)[nH]c3c2)CC1
Result: 48.6% (inactive)

Ask: // growth lookup, key: CN1CCN(c2cc(F)c(NC3=C(Cl)C(=O)c4ncccc4C3=O)c(F)c2)CC1
Result: -79.9% (active)

Ask: // growth lookup, key: O=C(Nc1nc(-c2ccccc2Cl)cs1)c1cc(-c2ccccc2)nc2ccc(Cl)cc12
Result: 42.8% (inactive)

Ask: // growth lookup, key: C=C(C)[C@@H]1CC[C@]2(C(=O)NCCCN(CCC#N)CCC#N)CC[C@]3(C)[C@H](CC[C@@H]4[C@@]5(C)CCC(=O)C(C)(C)[C@@H]5CC[C@]43C)[C@@H]12
Result: 82.4% (inactive)
